Field: melting point. Provide a value for each of the compounds that follow.

Below are worked cases with known answers.
O=C(Nc1nccs1)c1c(C(F)(F)F)nc2ccccc2c1O	> 280 °C
COc1ccc(CN2CCC(C(=O)O)(S(=O)(=O)c3ccc(OC)cc3)CC2)cc1	175 °C
O=[N+]([O-])c1ccc(F)c(-n2nc3c(c2Cl)CCCC3)c1	109 °C
CS(=O)(=O)Cc1cc(C(=O)C=NCCCCCCN=CC(=O)c2ccc(OCc3ccccc3)c(CS(C)(=O)=O)c2)ccc1OCc1ccccc1	162 to 163 °C
O=C(N1c2ccccc2C(Br)C(Br)c2ccccc21)C(F)(F)F (centres undefined)	186 to 189 °C

Need melting point for each of these compounds.
1. CN(C)c1ccc(C(c2cc(C(C)(C)C)c(O)c(C(C)(C)C)c2)N2CCCCC2)cc1 (centres undefined)
2. CC(C)(C)OC(=O)N1CCC(N2CCN(CCCN3CCCCC3)C2=C(C#N)C#N)CC1
3. Nc1nc(N)c2c(ccc3c2c2c(n3Cc3ccccc3)CCCC2)n1
4. CC(=O)CCC(=O)N1CCN(c2c(F)cc(N3CC(CNC(C)=O)OC3=O)cc2F)CC1 (centres undefined)
5. O=C(Nc1ccccc1)c1sc2c([N+](=O)[O-])c(O)c(O)cc2c1Cl

## Output
["184 to 185 °C", "141 to 143 °C", "224 to 226 °C", "52 to 56 °C", "288 °C"]

Would you mind listing melting point for each of the following compounds?
1. CCCCCCCCCCN1CCN(O)C1=O
2. O=C(Cn1c(-c2nonc2NCCCO)nc2ccccc21)c1ccc(Cl)cc1
3. c1ccc(Oc2ccc(C3(Cn4cncn4)OCCCO3)cc2)cc1

## Output
1. 68 to 69 °C
2. 166 to 169 °C
3. 129 to 130 °C

* * *

MEASURED ATTRIBUTE: melting point

Examples from the recorded data:
COc1cccc([C@H]2O[C@H](CC(=O)Nc3ccc4oc(C(=O)O)c(OCC(=O)O)c4c3)C(=O)N(CC(C)(C)CO)c3ccc(Cl)cc32)c1OC	193 to 196 °C
COc1ccc(Cn2c(=O)c3c(N4CCN(C)CC4)cc(Cl)cc3n(Cc3ccccc3)c2=O)cc1	81 to 89 °C
COc1ccc2[nH]c3c(c2c1)CC(N(C)C)CC3 (centres undefined)	126 to 128 °C
Fc1ccc2c(C3CCN(CC4=Cc5ccccc54)CC3)noc2c1	78 to 82 °C
CCOC(=O)C(C)(C)N1OCC(CSC)=C(c2ccccc2)C1=O	105 to 106 °C

Hi! Can you tell me melting point for each of these molecules?
1. Oc1ccc(Cl)c(Cl)c1OCC1CO1 (centres undefined)
2. O=C(O)C1=Cc2cc(C3CCCCC3)ccc2CC1
3. Cc1cc(C(F)(F)F)c(-c2ccc(C[C@H](NC(=O)c3c(Cl)cccc3Cl)C(=O)O)cc2)c(=O)n1C
4. NS(=O)(=O)c1ccc(NN=Cc2ccc(Cl)cc2)cc1

## Output
1. 92 to 94 °C
2. 179 to 180 °C
3. 238 to 240 °C
4. 181 to 182 °C

* * *

MEASURED ATTRIBUTE: melting point

Examples with their reported melting point follow.
COc1ccc(O)c(C2(NCC(C)=O)Sc3ccccc3N(C)C2=O)c1 (stereo not given)	164 to 168 °C
Fc1nc(F)c(F)c(F)n1	104 °C
Cn1ccc2c3c(c(I)cc21)C(=O)NC3=O	322 to 325 °C
CC(=C(c1ccc(N(C)C)cc1)c1ccc(N(C)C)cc1)P(C1CCCCC1)C1CCCCC1	159 to 164 °C
CC(=O)OCC(=O)C1(OC(=O)CC(C)C)CCC2C3CC(C)C4=CC(=O)C=CC4(C)C3C(O)CC21C (stereo not given)	172 °C

Batch request: melting point per item, same order as input.
1. Cc1cc(Nc2ccnc(Nc3ccc(S(=O)(=O)N(C)C4CCN(Cc5cncs5)CC4)cc3)n2)ccc1F
2. OC1(c2ccccc2)C(c2ccccc2)SC2=NCCCCN21 (stereo not given)

## Output
1: 196 to 197 °C; 2: 100 to 103 °C

Provide each entry's melting point from the list below.
1. CCNC(=O)c1c([Si](C)(C)C)csc1Cl
2. COC(=O)c1cc(-c2ccccc2)c(=O)n2ccc3ccc(Cl)cc3c12
3. CCCCCCSCCSCCSc1nc2nc(C)cc(O)n2n1

## Output
46 to 48 °C
169 to 170 °C
119 to 121 °C

* * *

MEASURED ATTRIBUTE: melting point

Study these solved cases before continuing.
O=C(CN1CCC(Oc2ccccc2)CC1)Nc1ccc2c(c1)OCC(=O)N2	206 to 208 °C
CC(C)n1nc(-c2c(-c3ccccc3)nn3ccc(N4CCN(C(=O)c5ccccc5)CC4)cc23)ccc1=O	124 to 126 °C
CNC(=O)[C@H]1O[C@@H](n2cnc3c(NCc4cc(Cl)ccc4OCc4ccccc4)ncnc32)[C@H](O)[C@@H]1N	114 to 115 °C
Cc1nc(-c2cn(Cc3ccccc3)nn2)sc1C(=O)NCc1ccccc1	108 to 109 °C
CC(C)C[C@H](NC(=O)O[C@H]1CCOC1)C(=O)O	94.9 to 96 °C

For every listed record, write down its melting point.
1. CC(C)n1nc(-c2sc(NC(=O)c3ccc(I)cc3)nc2-c2ccccc2)ccc1=O
2. CC(C)(C(=O)C=Cc1ccc(F)cc1)C1OCCO1
3. CCOC(=O)/C=C/c1ccc(OCCCOC)cc1Oc1ncc(C(F)(F)F)cc1Cl
4. CCCCCCCCCc1ccc(CCCC(N)(CO)CCO)cc1 (stereo not given)

## Output
1. 253 to 254 °C
2. 76 °C
3. 86.4 to 86.5 °C
4. 71 to 73 °C

* * *

MEASURED ATTRIBUTE: melting point

COc1cc2c(=O)c(Cc3cccnc3)cn3c4cc(Br)ccc4c(c1)c23	169 to 172 °C
O=C(O)c1cc(NC(=O)C(CS)Cc2ccccc2)ccc1N1CCCC1 (stereo unspecified)	196 to 198 °C
Nc1nc2c(sc(=S)n2C2OC(COC(=O)c3ccccc3)C(OC(=O)c3ccccc3)C2OC(=O)c2ccccc2)c(=O)[nH]1 (stereo unspecified)	230 to 233 °C

Batch of 2 compounds: report melting point for each.
1. CN=C1SC(=NOC(=O)NC)C(C)(C)S1
2. CCOC(=O)CCCCCN(C)S(=O)(=O)C1=C(C)NC(C)=C(C(=O)OC)C1c1cccc([N+](=O)[O-])c1 (stereo unspecified)

## Output
1: 68 to 70 °C; 2: 83 to 86 °C

Field: melting point. Fill in for each record below.
1. C=Cc1cn(-c2c(Cl)cc(C(F)(F)F)cc2Cl)cc1C#N
2. NC(=O)c1cnn(-c2ncc(C(F)(F)F)cc2Cl)c1N
3. CC(=O)Nc1ccc(-c2cnc3c(c2)N(Cc2cc(Cl)ccc2C(F)(F)F)CCN3)cc1
4. Cc1cc(-c2ccc(Cl)c(C)c2)nc(-c2cccc(-c3cccc(S(N)(=O)=O)c3)c2)n1
5. C#CC1(OC(=O)NCCCC)CCN(CCC=C(c2ccc(F)cc2)c2ccc(F)cc2)CC1
6. O=C(c1ccc2c(c1)C(=O)N1CCC[C@H]1CO2)N1CCCCC1
7. Sc1ncc(-c2ccccc2)s1
8. CC(C)(C)NS(=O)(=O)c1ccccc1CCCl

## Output
["55 to 60 °C", "196 °C", "244 °C", "201 °C", "83 to 84 °C", "140 °C", "207 to 209 °C", "64 to 65 °C"]

Hello, I would appreciate it if you could give melting point for each entry below.
1. CC(=C1SC(=O)NC1=O)c1ccc(OCCOc2c(-c3ccc(F)cc3)n(C)c3cc(F)ccc3c2=O)cc1
2. N#Cc1cn(COC(CO)CO)c2ncnc(N)c12
3. O=c1[nH]c2cc(Cl)cc(Cl)c2c(-c2cc(Cl)ccc2O)c1O
4. CCCCCC(=O)NC1(OCC)CC1
5. Cc1nc2ccc(F)cc2c(=O)n1-c1ccccc1Cl
6. CC(C)c1cccc(C(C)C)c1NC(=NCc1cccc(CCl)c1)Nc1c(C(C)C)cccc1C(C)C
7. O=C1c2c(Cl)cccc2-n2cnc(-c3noc(CN4CCCC4)n3)c2[C@@H]2CCN12

## Output
1. 276 to 278 °C
2. 195 °C
3. 297 to 299 °C
4. 47 to 48.5 °C
5. 137 to 138 °C
6. 122 to 124 °C
7. 117 to 120 °C

Hey, can you go through the list below and give me melting point for every item?
1. O=C(O)c1cccc(-c2nc(-c3ccc(F)cc3F)cs2)c1
2. COC(=O)n1c(SCc2nccc(SCCN3CCOCC3)c2C)nc2ccccc21

## Output
255 to 256 °C
151 to 153 °C

Lab note: each compound below needs its melting point filled in.
1. C#CC[C@@H](N)c1nc2cccnc2c(=O)n1Nc1ccccc1
2. CSc1nccc(-c2cc(C)ccc2NC(=O)C(C)C)n1
3. CC(C)(C)C(=O)C(Oc1ccc(Cl)cc1)c1cccnc1 (stereo unspecified)
4. CCn1c(=O)c2[nH]c(/C=C/c3ccc(OC)c(Br)c3)nc2n(CC)c1=O
5. Nc1cc([N+](=O)[O-])ccc1OCC(O)CN1C(=O)CCC1=O (stereo unspecified)
6. CCCCCCCCCCCCn1nnnc1CCC(=O)OC

## Output
["206 to 208 °C", "134 to 135 °C", "50 °C", "> 280 °C", "200 °C", "43 to 45 °C"]

Quick batch: melting point for everything below.
1. C#CCn1cnc2c(N)nc3ccccc3c21
2. CC=C1CCC2C3CCC4CC(O)C(OCC)CC4(C)C3C(=NO)CC12C (stereo unspecified)
3. CCOC(=O)C(Cc1cnc2ccc(OC)cc2c1)NC(=O)OC(C)(C)C (stereo unspecified)
4. O=C1CCC(N2Cc3c(OCc4ccc(CN5CCCOCC5)cc4)cccc3C2=O)C(=O)N1 (stereo unspecified)

## Output
1. 220 to 222 °C
2. 176 to 193 °C
3. 127 °C
4. 119 to 121 °C

Respectfully, I request melting point for each entry included below.
1. O=c1cc(Oc2cccc(OCc3ccccc3)c2)c2ccccc2[nH]1
2. CC(C)[C@H](NC(=O)OCc1ccccc1)C(=O)NC(Cc1ccccc1)C(O)C(Cc1ccccc1)NC(=O)[C@@H](NC(=O)OC(C)(C)C)C(C)C (stereo partly specified)
3. Cc1cc(S)n2nc(N)nc2n1

## Output
1: 262 to 265 °C; 2: 184 °C; 3: > 300 °C

Would you mind listing melting point for each of the following compounds?
1. COCCc1nc2c(N)nc3ccccc3c2n1CCOCCCc1ccccc1
2. O=C1NCc2c(Cl)nc3ccccc3c21
3. CC(=O)Nc1cccc(-c2cncnc2)c1
4. O=C(O)C1CCc2onc(-c3ccc(Cl)cc3)c2CC1 (stereo unspecified)
5. COc1cc2c(Nc3ccc(Cl)cc3F)ncnc2cc1O

## Output
104 °C
169 to 171 °C
157 to 158 °C
144 to 145 °C
141 to 143 °C

## Input # get_value(readout='melting point', item= CCOc1nc(C)c2cc(OC)c(OC)cc2c1C(=O)OC )
## Output 147 to 149 °C
